The reported measurements were obtained from patent US20040126856A1.

Biological target: factor IXaPCEGF1 (factor IXa replacement mutant in which the EGF1 domain is replaced by that of protein C) (human) (UniProt P04070)
Assay: peptide inhibition of IXaPCEGF1:A2 interaction; 100 nM IXa, 30 nM A2, 250 nM factor X; factor Xa generation (FIG. 5)
READOUT_KIND: pIC50
Hey, just a heads up that pIC50 is the negative log base 10 of the concentration in molar.

# get_value(readout='pIC50', item= SVDQRGNQ [synthetic peptide corresponding to the A2 subunit residues 558-565 (Ser-Val-Asp-Gln-Arg-Gly-Asn-Gln)] )
5.10
